src = patent US20240251792A1

# System: weeds and/or crops
# testDetails: Post-emergence biological efficacy (Table 4)
# Type: in vivo
# conditionSummary: STEME, 1000 g/ha, evaluated after 13 days
For each record, write down the corresponding damage to plant STEME (100=total damage; 0=no damage).

- smilesRepresentation: "Nc1ccc(Cl)c(Cl)c1C(F)(F)C(=O)[O-].[Li+]"
  testTarget: "weeds and/or crops"
  reading: 10
- smilesRepresentation: "COc1cc(F)c(C(F)(F)C(=O)O)cc1Cl.N"
  testTarget: "weeds and/or crops"
  reading: 0
- smilesRepresentation: "N.N#Cc1cccc(C(F)(F)C(=O)O)c1Cl"
  testTarget: "weeds and/or crops"
  reading: 100
- smilesRepresentation: "N.Nc1ccc(C(F)(F)C(=O)O)c(Cl)c1Cl"
  testTarget: "weeds and/or crops"
  reading: 90

Shifting focus to the molecule that follows.
[in] I would be grateful if you could share the reported damage to plant STEME (100=total damage; 0=no damage) for Nc1ccc(Cl)cc1C(F)(F)C(=O)[O-].[Li+] .
[out] 20

----------
# Tested on: STEME
# testDetails: Pre-emergence biological efficacy (Table 3)
# Type: in vivo
# conditionSummary: 1000 g/ha, after 13 days
assayEndpoint: evaluation (100=total damage to plant; 0=no damage to plant)

Past entries and their recorded results:
- smilesRepresentation: "N.N#Cc1cccc(C(F)(F)C(=O)O)c1Cl"
  testTarget: "STEME"
  reading: 100
- smilesRepresentation: "Nc1ccc(Cl)c(Cl)c1C(F)(F)C(=O)[O-].[Li+]"
  testTarget: "STEME"
  reading: 0
- smilesRepresentation: "COc1cc(F)c(C(F)(F)C(=O)O)cc1Cl.N"
  testTarget: "STEME"
  reading: 0
- smilesRepresentation: "Nc1ccc(Cl)cc1C(F)(F)C(=O)[O-].[Li+]"
  testTarget: "STEME"
  reading: 10

[in] Suppose we examine the compound N.Nc1ccc(C(F)(F)C(=O)O)c(Cl)c1Cl ; what evaluation (100=total damage to plant; 0=no damage to plant) value has been reported?
[out] 70

----------
# Tested on: AMARE
# testDetails: Biological efficacy, pre-emergence glasshouse test (Table 2)
# Type: in vivo
# conditionSummary: 1000 g/ha, after 12 days
Kindly supply the reported score (100=total damage to plant, 0=no damage to plant) values for the records listed here.
Answers are plain numbers.

// worked examples, score (100=total damage to plant, 0=no damage to plant) included
- molecule: "COc1ccc(Cl)cc1C(F)(F)C(=O)O [Compound 1-305]"
  reading: 0
- molecule: "CC(C)Oc1ccccc1C(F)(F)C(=O)O [Compound 1-341]"
  reading: 30
- molecule: "CCc1ccccc1C(F)(F)C(=O)O [Compound 1-263]"
  reading: 40
- molecule: "N#Cc1ccccc1C(F)(F)C(=O)[O-].[Li+] [Compound 5-255]"
  reading: 20
- molecule: "COc1ccccc1C(F)(F)C(=O)O [Compound 1-9]"
  reading: 80
- molecule: "O=C(O)C(F)(F)c1cccc2ccccc12 [Compound 1-397, 2,2-Difluoro-2-(1-naphthyl)acetic acid]"
  reading: 90

I would be grateful if you could provide score (100=total damage to plant, 0=no damage to plant) for each of the following entries.
1. C#Cc1c(Cl)cccc1C(F)(F)C(=O)O [Compound 1-291]
2. COc1cc(F)c(C(F)(F)C(=O)O)cc1Cl.N [Compound 7-31]
3. CCOC(=O)C(F)(F)c1cccc2cccc(C(F)(F)C(=O)OCC)c12 [Compound 3-419]
4. COc1ccc(F)cc1C(F)(F)C(=O)O [Compound 1-304]

[out]
[90, 0, 80, 0]

----------
# Test system: weeds and/or crops
# testDetails: Post-emergence biological efficacy (Table 4)
# Assay type: in vivo
# conditionSummary: IPOHE, 1000 g/ha, evaluated after 13 days
So basically: damage to plant IPOHE (100=total damage; 0=no damage) at 20 or higher? That is Met. Lower than 20? That is Not met.

Field: example entries. Status: answers known.
- compound: "Nc1ccc(Cl)c(Cl)c1C(F)(F)C(=O)[O-].[Li+] [Compound 5-80]"
  label: "Not met"
- compound: "N.N#Cc1cccc(C(F)(F)C(=O)O)c1Cl [Compound 7-231]"
  label: "Met"
- compound: "COc1cc(F)c(C(F)(F)C(=O)O)cc1Cl.N [Compound 7-31]"
  label: "Not met"

# evaluate next
[in] Identify whether the reported damage to plant IPOHE (100=total damage; 0=no damage) of the following compound is 20 or greater: COc1ccccc1C(F)(F)C(=O)O [Compound 1-9]
[out] Met

----------
# Test system: AMARE
# testDetails: Pre-emergence biological efficacy (Table 3)
# Format: in vivo
# conditionSummary: Amaranthus retroflexus, 312 h, 1000 g/ha, after 13 days, read-out: evaluation (100=total damage to plant; 0=no damage to plant)
Returns the class for an entry based on its pest or weed control at 1000 g/ha. Class ranges: category 1 = under 40%, category 2 = from 40% up to 80%, category 3 = 80% and over

Solved cases (5 shown):
- smilesRepresentation: "Cc1noc2ccc(Cl)c(C(F)(F)C(=O)O)c12"
  testTarget: "AMARE"
  label: "category 1"
- smilesRepresentation: "COC(=O)C(F)(F)c1c(Cl)cccc1OC"
  testTarget: "AMARE"
  label: "category 2"
- smilesRepresentation: "COC(=O)C(F)(F)c1c(Cl)ccc2cc(Cl)cnc12"
  testTarget: "AMARE"
  label: "category 2"
- smilesRepresentation: "CSc1cccc(C(F)(F)C(=O)O)c1Cl"
  testTarget: "AMARE"
  label: "category 2"
- smilesRepresentation: "Nc1c(Cl)cc(Cl)cc1C(F)(F)C(=O)O"
  testTarget: "AMARE"
  label: "category 1"

[in] Class label required: COc1c(Cl)cccc1C(F)(F)C(=O)O
[out] category 3

[in] Which category does the recorded pest or weed control at 1000 g/ha put Cc1c(C#N)cccc1C(F)(F)C(=O)O in?
[out] category 3

[in] The entry to classify is Nc1c(Cl)ccc(Cl)c1C(F)(F)C(=O)O ; which class holds it?
[out] category 1

[in] # classify by pest or weed control at 1000 g/ha band: O=C(O)C(F)(F)c1cc(Cl)c(Cl)cc1O
[out] category 1

[in] Textbook exercise: identify the category of the compound given here, O=C(O)C(F)(F)c1cccc(Cl)c1[N+](=O)[O-] , according to its measured value.
[out] category 3

[in] Field: class (pest or weed control at 1000 g/ha) — entry: COc1c(F)ccc(C(F)(F)C(=O)O)c1F
[out] category 3

----------
# Test system: AMARE
# testDetails: Pre-emergence biological efficacy (Table 3)
# Assay type: in vivo
# conditionSummary: Amaranthus retroflexus, 312 h, 1000 g/ha, after 13 days, read-out: evaluation (100=total damage to plant; 0=no damage to plant)
assayEndpoint: pest or weed control at 1000 g/ha (%)
Answers are plain numbers, in %.

- compound: "O=C(O)C(F)(F)c1c(Cl)ccc2cc(Cl)cnc12 [Compound 1-418]"
  assayEndpoint: "pest or weed control at 1000 g/ha"
  unitsText: "%"
  reading: 30

For every record below, what is its pest or weed control at 1000 g/ha?
1. COc1cccc(Cl)c1C(F)(F)C(=O)O [Compound 1-65]
2. O=C(O)C(F)(F)c1c(Cl)ccc2c1OC(F)(F)O2 [Compound 1-389]
3. CCOC(=O)C(F)(F)c1c(Cl)cccc1[N+](=O)[O-] [Compound 3-67]
4. O=C(O)C(F)(F)c1cccc(O)c1 [Compound 1-5]

[out]
1. 60
2. 60
3. 10
4. 10

----------
# System: AMARE
# testDetails: Pre-emergence biological efficacy (Table 3)
# Type: in vivo
# conditionSummary: Amaranthus retroflexus, 312 h, 1000 g/ha, after 13 days, read-out: evaluation (100=total damage to plant; 0=no damage to plant)
# Description: Seeds of weeds and/or crops were sown in standard soil in pots. […] The test plants were then grown under controlled conditions in the glasshouse (at 24/18° C., day/night; 15 hours light; 50% humidity) and watered twice daily. After 13 days the test was evaluated (100=total damage to plant; 0=no damage to plant).
assayEndpoint: pest or weed control at 1000 g/ha
Note: a bare number is incomplete; add the unit.

# annotated cases, reported pest or weed control at 1000 g/ha shown
- smilesRepresentation: "COc1ccc(C(F)(F)C(=O)O)c([N+](=O)[O-])c1F"
  testTarget: "AMARE"
  assayEndpoint: "pest or weed control at 1000 g/ha"
  reading: "40%"
- smilesRepresentation: "C#Cc1cccc(C(F)(F)C(=O)O)c1Cl"
  testTarget: "AMARE"
  assayEndpoint: "pest or weed control at 1000 g/ha"
  reading: "90%"
- smilesRepresentation: "Cc1noc2cccc(C(F)(F)C(=O)O)c12"
  testTarget: "AMARE"
  assayEndpoint: "pest or weed control at 1000 g/ha"
  reading: "70%"
- smilesRepresentation: "CCOC(=O)C(F)(F)c1cccc2cccc(C(F)(F)C(=O)OCC)c12"
  testTarget: "AMARE"
  assayEndpoint: "pest or weed control at 1000 g/ha"
  reading: "20%"
- smilesRepresentation: "N#Cc1c(F)ccc(C(F)(F)C(=O)O)c1Cl"
  testTarget: "AMARE"
  assayEndpoint: "pest or weed control at 1000 g/ha"
  reading: "80%"

Report pest or weed control at 1000 g/ha for every entry below.
1. Nc1c(Cl)cccc1C(F)(F)C(=O)O
2. O=C(O)C(F)(F)c1ccccc1OC(F)(F)F

[out]
1: 40%; 2: 70%

Please state, for each entry, its recorded pest or weed control at 1000 g/ha.
1. COc1c(F)cccc1C(F)(F)C(=O)O
2. Nc1ccc(Cl)c(C(F)(F)C(=O)O)c1

[out]
30%
0%
